This section presents sequences with their documented PBM binding z-score values.
- System: PPARg:RXRa 30nM:10nM, anti-RXR (NR concentration 30 nM, RXRa partner concentration 10 nM)
- PROCEDURE DETAILS: PBM binding z-score (relative to random genomic background probes); higher = stronger binding; sequences stand for … in GC…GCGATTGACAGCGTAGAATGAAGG

SEQ STRING: CCTACTGGGCCACGAAAGGCCATTGATTCAGTGA
PBM binding z-score: -0.199
--
SEQ STRING: TCTGCTAGGTCAACGATGGTCAGTTAATCTGCTA
PBM binding z-score: 1.79
--
SEQ STRING: TATCAAAGTTCAAAGGTAACGTAAGTATCCACAC
PBM binding z-score: 3.65
--
SEQ STRING: CAAACGAGGTCAAGAGGTCAAAGTCCGCTTCCCG
PBM binding z-score: 5.59
--
SEQ STRING: ATATGTAGGTTAGCTGGGGTCCTTCAGACTAGGC
PBM binding z-score: 0.715
--
SEQ STRING: AGTCAAAGTTCAGGACGAGGTAACGTTAAGCACG
PBM binding z-score: 2.03
--
SEQ STRING: CGTCAAACTTCAACTAAGGTAACGTAAAGCACGC
PBM binding z-score: 0.351
--
SEQ STRING: AATAAAGGGTCATCGTAGGCCAGAGTACGCACAG
PBM binding z-score: 3.39
--
SEQ STRING: TTACCAAGGTCAAGGTCGTTGATCCCTCTGTAGA
PBM binding z-score: 3.44
--
SEQ STRING: TCTGCTAGGTCAACGTTGGTCAGCTAATCTGCTA
PBM binding z-score: 1.9
--
SEQ STRING: GCATATAGGTAATACAAGGTCAAAGTCCGATTGT
PBM binding z-score: 1.39
--
SEQ STRING: TCGAGTAGGTCACGGGGGCATTCAGGGATGAAGA
PBM binding z-score: 5.9
--
SEQ STRING: CAAACTAGGTCAAGGTCTAAGTCGGTTTGTGCCA
PBM binding z-score: 5.25
--
SEQ STRING: CAAACTAGGTCAAGAGGTCAAAGTTCGCTTCCCG
PBM binding z-score: 7.44
--
SEQ STRING: CCTAGCAGGCCAATCTAGGTCACTCAAGGCTTGA
PBM binding z-score: 0.115
--
SEQ STRING: CCTACTGGGCCATTCAGAGGGCATTGATCATATG
PBM binding z-score: -0.432
--
SEQ STRING: TCTATTAGTTGATTAGGGCAACCGAAACAGCGGA
PBM binding z-score: 3.65
--
SEQ STRING: CGAACTAGGTCGCCAGGACAGTGAAGAGGTTGGA
PBM binding z-score: 0.111
--
SEQ STRING: CCTCGGAGGACAACAGGAGGTCATAGCTGCCAGA
PBM binding z-score: 0.00805
--
SEQ STRING: TCTAGTTGGTCAAAGGTCACGCACTCGAAATGCG
PBM binding z-score: 12.6
--
SEQ STRING: GGAACGAGGTCATTCGAGTTGATAGCATGGCGAT
PBM binding z-score: 3.27
--
SEQ STRING: AATACGGGGTCACTAGGCCAGAGTAGGTACGAAT
PBM binding z-score: 5.78
--
SEQ STRING: AATACAGGGTAACTAGGCCAGAGTAGGTACGAAT
PBM binding z-score: 0.877

---

// reported PBM binding z-score for each item listed
- Tested on: LXRa homodimer (NR concentration 270 nM)
- PROCEDURE DETAILS: PBM binding z-score (relative to random genomic background probes); higher = stronger binding; sequences stand for … in GC…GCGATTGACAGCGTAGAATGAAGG

SEQ STRING: ATCGAAAGGTCTAAGGTGAGTATACCCACCCGAA
PBM binding z-score: -0.103
--
SEQ STRING: AGTCAAAGTTTATCTAGGTAACGTAAGATATGCT
PBM binding z-score: 0.141
--
SEQ STRING: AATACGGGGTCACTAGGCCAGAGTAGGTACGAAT
PBM binding z-score: 2
--
SEQ STRING: ATATGTAGGTTAGGGTCAGTCAGAAAGTAGGGAA
PBM binding z-score: 0.758
--
SEQ STRING: CCAACTGGGCCAAAAAGGTCATTGATGCCGATAA
PBM binding z-score: 3.17
--
SEQ STRING: TAGCCGAGGTCATTCAGGGGCCAGTATAGAAAGC
PBM binding z-score: 2.47

---

- Tested on: PPARg DBDmut IVT, anti-PPARg (DBD mutation: PPARg1 K132A/R137A, NR concentration 270 nM)
- PROCEDURE DETAILS: PBM binding z-score (relative to random genomic background probes); higher = stronger binding; sequences stand for … in GC…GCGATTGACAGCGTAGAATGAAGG
Lab note: anything with PBM binding z-score at or over 0.5 counts as Criterion met; the rest go in Criterion not met.

SEQ STRING: ATCGAAAGGTCCACGAGGTGAGTATACACCGTTT
TEST TARGET: PPARg DBDmut IVT, anti-PPARg (DBD mutation: PPARg1 K132A/R137A, NR concentration 270 nM)
GROUP LABEL: Criterion not met

SEQ STRING: TGAATGAGGTTAAATATCAGGGAACGTGGCGTCG
TEST TARGET: PPARg DBDmut IVT, anti-PPARg (DBD mutation: PPARg1 K132A/R137A, NR concentration 270 nM)
GROUP LABEL: Criterion met

SEQ STRING: GGAACGAGGTCAAGTTGATAGCAGAGTTTGATGG
TEST TARGET: PPARg DBDmut IVT, anti-PPARg (DBD mutation: PPARg1 K132A/R137A, NR concentration 270 nM)
GROUP LABEL: Criterion met

SEQ STRING: CGAACTAGGTCATTGACAGGACAGTGGATAGTAA
TEST TARGET: PPARg DBDmut IVT, anti-PPARg (DBD mutation: PPARg1 K132A/R137A, NR concentration 270 nM)
GROUP LABEL: Criterion met

SEQ STRING: CAAACAAGGTCACCGGAAGGTCAAAGTCCGCATG
TEST TARGET: PPARg DBDmut IVT, anti-PPARg (DBD mutation: PPARg1 K132A/R137A, NR concentration 270 nM)
GROUP LABEL: Criterion met

SEQ STRING: ATCGAAAGGTCAACGAGGTGAGTATACACCGTTT
TEST TARGET: PPARg DBDmut IVT, anti-PPARg (DBD mutation: PPARg1 K132A/R137A, NR concentration 270 nM)
GROUP LABEL: Criterion met

SEQ STRING: TAGCCTAGTTCATTCAGGGGCCAGTATAGAAAGC
TEST TARGET: PPARg DBDmut IVT, anti-PPARg (DBD mutation: PPARg1 K132A/R137A, NR concentration 270 nM)
GROUP LABEL: Criterion met

SEQ STRING: CGTCCAAGGTCGAAGGTCAGTGAAGAGATGACGG
TEST TARGET: PPARg DBDmut IVT, anti-PPARg (DBD mutation: PPARg1 K132A/R137A, NR concentration 270 nM)
GROUP LABEL: Criterion not met

SEQ STRING: CGTCCAAGGTCATTGGAGGTCAGTGAAGACAGAT
TEST TARGET: PPARg DBDmut IVT, anti-PPARg (DBD mutation: PPARg1 K132A/R137A, NR concentration 270 nM)
GROUP LABEL: Criterion not met

SEQ STRING: CCTACTGGGTCAAAGGTCATTGATTCCAATGCTC
TEST TARGET: PPARg DBDmut IVT, anti-PPARg (DBD mutation: PPARg1 K132A/R137A, NR concentration 270 nM)
GROUP LABEL: Criterion met

SEQ STRING: AATACAGGGTGACTAGGCCAGAGTAGGTACGAAT
TEST TARGET: PPARg DBDmut IVT, anti-PPARg (DBD mutation: PPARg1 K132A/R137A, NR concentration 270 nM)
GROUP LABEL: Criterion met

SEQ STRING: CCAGACAGGTGAGAAGGTAACTCAGCCTCGATTA
TEST TARGET: PPARg DBDmut IVT, anti-PPARg (DBD mutation: PPARg1 K132A/R137A, NR concentration 270 nM)
GROUP LABEL: Criterion not met

SEQ STRING: CCTACTGGGCCGTTCAGAGGTCATTGATCATATG
TEST TARGET: PPARg DBDmut IVT, anti-PPARg (DBD mutation: PPARg1 K132A/R137A, NR concentration 270 nM)
GROUP LABEL: Criterion not met

SEQ STRING: CGAACAAGGTCACCAGGACAGTGAAGAGGTTGGA
TEST TARGET: PPARg DBDmut IVT, anti-PPARg (DBD mutation: PPARg1 K132A/R137A, NR concentration 270 nM)
GROUP LABEL: Criterion met

SEQ STRING: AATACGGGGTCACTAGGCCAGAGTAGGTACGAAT
TEST TARGET: PPARg DBDmut IVT, anti-PPARg (DBD mutation: PPARg1 K132A/R137A, NR concentration 270 nM)
GROUP LABEL: Criterion met

SEQ STRING: CGAACAAGGTCATTGACAGGACAGTGAATAGTAA
TEST TARGET: PPARg DBDmut IVT, anti-PPARg (DBD mutation: PPARg1 K132A/R137A, NR concentration 270 nM)
GROUP LABEL: Criterion met

SEQ STRING: CGTCCAAGGTCTAGGTCAGTGAAAGAGACTCGAA
TEST TARGET: PPARg DBDmut IVT, anti-PPARg (DBD mutation: PPARg1 K132A/R137A, NR concentration 270 nM)
GROUP LABEL: Criterion not met

SEQ STRING: AAAACAGGGTCATCGTAGGCCAGAGTACGCACAG
TEST TARGET: PPARg DBDmut IVT, anti-PPARg (DBD mutation: PPARg1 K132A/R137A, NR concentration 270 nM)
GROUP LABEL: Criterion met

SEQ STRING: CAAACTAGGTCACAAAAGGTCAAAGTCGAATGAC
TEST TARGET: PPARg DBDmut IVT, anti-PPARg (DBD mutation: PPARg1 K132A/R137A, NR concentration 270 nM)
GROUP LABEL: Criterion met

SEQ STRING: TAGCCTAGGTCATGGGCCAGTGTACCACGCGAAC
TEST TARGET: PPARg DBDmut IVT, anti-PPARg (DBD mutation: PPARg1 K132A/R137A, NR concentration 270 nM)
GROUP LABEL: Criterion not met

SEQ STRING: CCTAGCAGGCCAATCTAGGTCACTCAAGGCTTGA
TEST TARGET: PPARg DBDmut IVT, anti-PPARg (DBD mutation: PPARg1 K132A/R137A, NR concentration 270 nM)
GROUP LABEL: Criterion not met

SEQ STRING: TATACGGGGTCAAAGGCCAGAGTACGAATGTCGA
TEST TARGET: PPARg DBDmut IVT, anti-PPARg (DBD mutation: PPARg1 K132A/R137A, NR concentration 270 nM)
GROUP LABEL: Criterion met

SEQ STRING: CCGACTGGGGCAAGGTCACCATAACGCACAGCCA
TEST TARGET: PPARg DBDmut IVT, anti-PPARg (DBD mutation: PPARg1 K132A/R137A, NR concentration 270 nM)
GROUP LABEL: Criterion not met

SEQ STRING: CGTCAAAGTTCAACTAAGGTCACGTAAAGCACGC
TEST TARGET: PPARg DBDmut IVT, anti-PPARg (DBD mutation: PPARg1 K132A/R137A, NR concentration 270 nM)
GROUP LABEL: Criterion met

SEQ STRING: CGAACGAGGTCATGAGTTGATAGCAAATGCCGAT
TEST TARGET: PPARg DBDmut IVT, anti-PPARg (DBD mutation: PPARg1 K132A/R137A, NR concentration 270 nM)
GROUP LABEL: Criterion met
